Provide the reported % Phosphatase Activity (compared to DMSO) PRL-1 of each item.
target entity: recombinant PRL-1 (Homo sapiens)
Construct: 6xHis (N, cleaved yes); made in house; host or cells: E. coli One Shot BL21 Star
Sequence (Q93096 1-173): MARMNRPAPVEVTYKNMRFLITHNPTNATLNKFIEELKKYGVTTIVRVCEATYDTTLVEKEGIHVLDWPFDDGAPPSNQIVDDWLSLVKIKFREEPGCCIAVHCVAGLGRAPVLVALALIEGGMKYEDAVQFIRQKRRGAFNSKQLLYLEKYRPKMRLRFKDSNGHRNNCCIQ
measurement description: In vitro phosphatase assay (DiFMUP hydrolysis), PRL-1
Format: biochemical
condition set: FDA-approved drug screen; compared to DMSO
Counter-ions that a name gives are not always drawn.
Numbers only, in %.

Cc1cccc(CN2CCN(C(c3ccccc3)c3ccc(Cl)cc3)CC2)c1.Cl.Cl (centres unmarked) [Meclizine 2HCl]
103
C[C@H]1CNCCCN1S(=O)(=O)c1cccc2cncc(F)c12
95
CC(=O)c1cc2c(o1)C(=O)c1ccccc1C2=O [Napabucasin, reference compound]
16
O=C(O)CCc1nc(-c2ccccc2)c(-c2ccccc2)o1
96

Provide % Phosphatase Activity (compared to DMSO) PRL-1 values for the following items, in order.
1. CCC(NC(C)C)C(O)c1ccc(O)c(O)c1 (centres unmarked) [Isoetharine Mesylate]
2. CC(O)C(=O)O.CN1CCN(c2ccc3nc(-c4c(N)c5c(F)cccc5[nH]c4=O)[nH]c3c2)CC1 [Dovitinib (TKI258) Lactate]
3. CCn1cc(C(=O)O)c(=O)c2cc(F)c(N3CCNC(C)C3)c(F)c21 (centres unmarked) [Lomefloxacin HCl]

Output line:
103
86
123

Input line: Answer with the recorded % Phosphatase Activity (compared to DMSO) PRL-1 for the compound listed here: "CC[C@@H]([C@H](C)O)n1ncn(-c2ccc(N3CCN(c4ccc(OC[C@@H]5CO[C@@](Cn6cncn6)(c6ccc(F)cc6F)C5)cc4)CC3)cc2)c1=O"
Output line: 89

----------
target entity: recombinant PRL-3 (Homo sapiens, UniProt O75365)
Construct: 6xHis (N, cleaved yes); made in house; host or cells: E. coli One Shot BL21 Star
Sequence (O75365 whole entry): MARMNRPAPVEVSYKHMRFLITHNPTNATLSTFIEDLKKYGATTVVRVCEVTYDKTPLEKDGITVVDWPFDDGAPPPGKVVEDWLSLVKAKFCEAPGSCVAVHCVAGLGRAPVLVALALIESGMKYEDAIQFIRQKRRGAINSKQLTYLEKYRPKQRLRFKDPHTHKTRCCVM
measurement description: In vitro phosphatase assay (DiFMUP hydrolysis), PRL-3
Format: biochemical
condition set: FDA-approved drug screen; compared to DMSO
metric name: % Phosphatase Activity (compared to DMSO) PRL-3 (%)
Answers are plain numbers, in %.

Some entries whose results are on file:
CC(C)c1nc(N(C)S(C)(=O)=O)nc(-c2ccc(F)cc2)c1/C=C/[C@@H](O)C[C@@H](O)CC(=O)O
83
C[N+]1(C)CCCC(OC(=O)C(O)(c2ccccc2)c2ccccc2)C1 (stereo not shown) [Mepenzolate Bromide]
80
Cc1ncc([N+](=O)[O-])n1CC(O)CCl (stereo not shown)
84

Shifting focus to the compound that follows.
Input line: Identify % Phosphatase Activity (compared to DMSO) PRL-3 associated with the compound "Nc1nc(Cl)nc2c1ncn2[C@@H]1O[C@H](CO)[C@@H](O)[C@@H]1F"
Output line: 81

----------
target entity: recombinant PRL-3 (Homo sapiens)
Construct: 6xHis (N, cleaved yes); made in house; host or cells: E. coli One Shot BL21 Star
measurement description: In vitro phosphatase assay (DiFMUP hydrolysis), PRL-3
Format: biochemical
condition set: FDA-approved drug screen; compared to DMSO
Counter-ions that a name gives are not always drawn.
# note: exactly 80% is not below, so it is label 0; use label 1 for % Phosphatase Activity (compared to DMSO) PRL-3 strictly under it

Worked examples, 5 molecules total:
Oc1ncnc2[nH]ncc12 [Allopurinol]
label 1
CN(C)CC/C=C1/c2ccccc2COc2ccc(CC(=O)O)cc21 [Olopatadine HCl]
label 1
Cc1cccn2c(=O)c(-c3nnn[nH]3)cnc12 [Pemirolast potassium]
label 0
O=C([O-])c1cc(=O)c2c(OCC(O)COc3cccc4oc(C(=O)[O-])cc(=O)c34)cccc2o1.[Na+].[Na+] [Disodium Cromoglycate]
label 0
O=C(NC[C@H]1CN(c2ccc(N3CCOCC3=O)cc2)C(=O)O1)c1ccc(Cl)s1 [Rivaroxaban]
label 0

Input line: Criterion: % Phosphatase Activity (compared to DMSO) PRL-3 strictly below 80%. Is it met by C=C1/C(=C\C=C2/CCC[C@]3(C)[C@@H]([C@H](C)CCCC(C)C)CC[C@@H]23)C[C@@H](O)C[C@@H]1O [Alfacalcidol] ?
Output line: label 1

Input line: Quick check: does CCc1nc(N)nc(N)c1-c1ccc(Cl)cc1 [Pyrimethamine] have % Phosphatase Activity (compared to DMSO) PRL-3 under 80%?
Output line: label 0
